- Assayed target: Fibroblast growth factor 14 (Homo sapiens)
- Run description: Binding affinity to human recombinant FGF14 expressed in Escherichia coli BL21 assessed as association rate constant by SPR analysis
- Test parameters: filed as modulator
Residues, ends and D or L forms follow the SMILES beside them. *: point of attachment. Adamantane1carbonyl = O=C(C12CC3CC(CC(C3)C1)C2)*; Pyrrolidide = C1CCN(*)C1; Cbz = O=C(OCc1ccccc1)*; OcHex = C1CCC(O*)CC1; OtBu = CC(C)(C)O*; OPr = CCCO*
Measurement name: K

The following compounds have reported results that may help.
CC(C)C[C@H](NC(=O)[C@@H]1CCCN1C(=O)OCc1ccccc1)C(=O)N[C@@H](CCC(=O)OC(C)(C)C)C(=O)N[C@H](C(=O)N1CCCC1)C(C)C (Cbz-PLE(OtBu)V-Pyrrolidide); 4.61 10^2/M/s
CCOC(=O)[C@@H](NC(=O)[C@H](CCC(=O)OC(C)(C)C)NC(=O)[C@H](CC(C)C)NC(=O)[C@@H]1CCCN1C(=O)C12CC3CC(CC(C3)C1)C2)C(C)C (Adamantane1carbonyl-PLE(OtBu)V-OEt); 2.17 10^2/M/s
CCCOC(=O)[C@@H](NC(=O)[C@H](CCC(=O)OC(C)(C)C)NC(=O)[C@H](CC(C)C)NC(=O)[C@@H]1CCCN1C(=O)C12CC3CC(CC(C3)C1)C2)C(C)C (Adamantane1carbonyl-PLE(OtBu)V-OPr); 2.89 10^2/M/s

Next compound, K to be filled in.
IN: Reported K for Fibroblast growth factor 14 (Homo sapiens), given CC(C)C[C@H](NC(=O)[C@@H]1CCCN1C(=O)C12CC3CC(CC(C3)C1)C2)C(=O)N[C@@H](CCC(=O)OC(C)(C)C)C(=O)N[C@H](C(=O)OC1CCCCC1)C(C)C (Adamantane1carbonyl-PLE(OtBu)V-OcHex) ?
OUT: 7.35 10^3/M/s

---

- Test system: HEK293
- Run description: Cytotoxicity against HEK293 cells assessed as reduction in cell viability measured after 18 hrs by celltiter-blue assay
- Test parameters: human, hek293, 18 h
Residues, ends and D or L forms follow the SMILES beside them. *: point of attachment. Adamantane1carbonyl = O=C(C12CC3CC(CC(C3)C1)C2)*; X2 = C1O[C@@H]1CO*; OtBu = CC(C)(C)O*
Measurement name: Activity

COC(=O)[C@@H](NC(=O)[C@H](CCC(=O)OC(C)(C)C)NC(=O)[C@H](CC(C)C)NC(=O)[C@@H]1CCCN1C(=O)C12CC3CC(CC(C3)C1)C2)C(C)C (Adamantane1carbonyl-PLE(OtBu)V-OMe); Non-Toxic
CC(C)C[C@H](NC(=O)[C@@H]1CCCN1C(=O)C12CC3CC(CC(C3)C1)C2)C(=O)N[C@@H](CCC(=O)OC(C)(C)C)C(=O)N[C@H](C(=O)OC[C@@H]1CO1)C(C)C (Adamantane1carbonyl-PLE(OtBu)V-X2); Non-Toxic

---

- Assayed target: Sodium channel protein type 8 subunit alpha (Homo sapiens, UniProt Q9UQD0)
- Sequence (Q9UQD0 whole entry, looked up, the tested form may be a part): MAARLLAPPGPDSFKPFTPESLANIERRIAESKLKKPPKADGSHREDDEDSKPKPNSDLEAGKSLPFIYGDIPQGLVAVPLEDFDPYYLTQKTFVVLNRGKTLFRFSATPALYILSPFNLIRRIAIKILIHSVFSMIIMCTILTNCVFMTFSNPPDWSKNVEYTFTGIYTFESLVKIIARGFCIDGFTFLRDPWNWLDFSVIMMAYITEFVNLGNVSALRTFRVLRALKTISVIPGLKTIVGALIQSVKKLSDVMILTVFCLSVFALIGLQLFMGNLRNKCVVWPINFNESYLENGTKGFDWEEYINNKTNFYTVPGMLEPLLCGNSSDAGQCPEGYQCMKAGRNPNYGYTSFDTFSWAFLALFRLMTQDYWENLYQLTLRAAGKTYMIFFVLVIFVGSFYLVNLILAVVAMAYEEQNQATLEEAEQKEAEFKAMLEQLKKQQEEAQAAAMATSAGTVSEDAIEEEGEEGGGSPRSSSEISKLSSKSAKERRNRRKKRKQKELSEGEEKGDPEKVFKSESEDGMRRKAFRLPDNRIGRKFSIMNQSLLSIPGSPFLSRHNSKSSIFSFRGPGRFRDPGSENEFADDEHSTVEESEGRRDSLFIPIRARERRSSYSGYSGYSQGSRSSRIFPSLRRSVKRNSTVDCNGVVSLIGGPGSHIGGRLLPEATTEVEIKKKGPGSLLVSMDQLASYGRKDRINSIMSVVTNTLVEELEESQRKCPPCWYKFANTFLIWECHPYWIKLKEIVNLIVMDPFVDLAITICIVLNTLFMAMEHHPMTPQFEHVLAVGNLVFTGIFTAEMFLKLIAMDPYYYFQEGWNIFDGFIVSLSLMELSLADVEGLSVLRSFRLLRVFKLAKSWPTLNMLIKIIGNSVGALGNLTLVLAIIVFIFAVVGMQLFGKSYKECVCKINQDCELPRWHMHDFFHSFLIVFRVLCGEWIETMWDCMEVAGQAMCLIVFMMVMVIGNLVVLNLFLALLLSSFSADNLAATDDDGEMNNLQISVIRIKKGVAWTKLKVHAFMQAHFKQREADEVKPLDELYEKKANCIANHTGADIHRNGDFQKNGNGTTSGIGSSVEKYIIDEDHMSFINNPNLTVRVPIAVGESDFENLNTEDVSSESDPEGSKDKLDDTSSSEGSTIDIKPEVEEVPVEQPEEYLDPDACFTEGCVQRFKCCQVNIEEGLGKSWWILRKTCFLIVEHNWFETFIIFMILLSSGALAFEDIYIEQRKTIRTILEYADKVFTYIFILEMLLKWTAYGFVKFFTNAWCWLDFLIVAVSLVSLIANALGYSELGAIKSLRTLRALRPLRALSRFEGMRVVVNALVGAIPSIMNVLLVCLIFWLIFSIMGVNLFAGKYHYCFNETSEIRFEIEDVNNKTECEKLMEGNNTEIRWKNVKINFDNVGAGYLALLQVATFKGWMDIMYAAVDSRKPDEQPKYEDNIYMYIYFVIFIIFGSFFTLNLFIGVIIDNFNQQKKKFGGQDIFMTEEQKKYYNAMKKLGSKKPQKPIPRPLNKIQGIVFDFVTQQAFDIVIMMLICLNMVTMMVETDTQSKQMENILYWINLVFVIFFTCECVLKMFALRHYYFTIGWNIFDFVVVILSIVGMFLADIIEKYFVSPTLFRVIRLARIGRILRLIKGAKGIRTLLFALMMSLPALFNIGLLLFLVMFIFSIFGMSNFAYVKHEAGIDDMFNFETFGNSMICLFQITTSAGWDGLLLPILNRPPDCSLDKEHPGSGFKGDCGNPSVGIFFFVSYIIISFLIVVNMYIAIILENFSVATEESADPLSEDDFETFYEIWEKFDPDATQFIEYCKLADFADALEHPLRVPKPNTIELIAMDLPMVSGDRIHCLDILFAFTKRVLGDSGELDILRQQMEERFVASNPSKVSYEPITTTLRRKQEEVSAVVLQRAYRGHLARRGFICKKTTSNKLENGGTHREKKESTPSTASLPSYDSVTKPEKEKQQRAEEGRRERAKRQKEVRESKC
- Run description: Binding affinity to human recombinant Nav1.6 C-terminal domain expressed in Escherichia coli BL21 assessed as association rate constant by SPR analysis
- Test parameters: filed as modulator
Residues, ends and D or L forms follow the SMILES beside them. *: point of attachment. Adamantane1carbonyl = O=C(C12CC3CC(CC(C3)C1)C2)*; OcHex = C1CCC(O*)CC1; OtBu = CC(C)(C)O*; OPr = CCCO*; X1 = C#CCO*
Measurement name: K

CC(C)C[C@H](NC(=O)[C@@H]1CCCN1C(=O)C12CC3CC(CC(C3)C1)C2)C(=O)N[C@@H](CCC(=O)OC(C)(C)C)C(=O)N[C@H](C(=O)OC1CCCCC1)C(C)C (Adamantane1carbonyl-PLE(OtBu)V-OcHex); 7.16 10^5/M/s
CCCOC(=O)[C@@H](NC(=O)[C@H](CCC(=O)OC(C)(C)C)NC(=O)[C@H](CC(C)C)NC(=O)[C@@H]1CCCN1C(=O)C12CC3CC(CC(C3)C1)C2)C(C)C (Adamantane1carbonyl-PLE(OtBu)V-OPr); 3.4 10^2/M/s

IN: Can you look up the measured K of C#CCOC(=O)[C@@H](NC(=O)[C@H](CCC(=O)OC(C)(C)C)NC(=O)[C@H](CC(C)C)NC(=O)[C@@H]1CCCN1C(=O)C12CC3CC(CC(C3)C1)C2)C(C)C (Adamantane1carbonyl-PLE(OtBu)V-X1) for me?
OUT: 1.26 10^5/M/s

FYI, the data here is from ChEMBL document CHEMBL4699573.
